// provenance: patent US20240408216A1

test system: BaF3 (EGFR L858R/T790M/C797S); assay: Cell proliferation IC50 assay (Cell Titer GLO), BaF3 LTC cells; assay type: cell-based; conditions: Mus musculus, Ba/F3 EGFR, Table 5, 72 h
assayReadout: IC50 (nM)
Numbers only, in nM.

Check out these entries, answers already filled in.
>>> observed("COc1cc(N2CCC(N3CCN(CCC#Cc4cccc5c4CN(C4CCC(=O)NC4=O)C5=O)CC3)CC2)c(C)cc1Nc1ncc(Cl)c(Nc2ccccc2P(C)(C)=O)n1 (stereo not drawn) [Example E3]")
46.6
>>> observed("CCc1cc(Nc2ncc(Cl)c(Nc3ccccc3P(C)(C)=O)n2)c(OC)cc1N1CCC(N2CCN(CCCc3cccc4c3CN(C3CCC(=O)NC3=O)C4=O)CC2)CC1 (stereo not drawn) [Example E26]")
53.5

Consider the record given below.
Request: IC50 for CCc1cc(Nc2ncc(Cl)c(Nc3ccccc3P(C)(C)=O)n2)c(OC)cc1N1CCC2(CCN(CCCC#Cc3ccc4c(c3)CN(C3CCC(=O)NC3=O)C4=O)CC2)CC1 (stereo not drawn) [Example E16] ?
Result: 348

----------
molecular target: BaF3 (EGFR Del19/C797S) (Homo sapiens, UniProt P00533, C797S, cells depend on it, form not given); construct: BaF3 (EGFR Del19/C797S)|DC|RPMI1640 + 10% FBS; assay: Cell proliferation IC50 assay (Cell Titer GLO), BaF3 DC cells; type: cell-based, mouse; settings: Table 6, 72 h
Sequence (P00533 with tags, fused parts or gaps DEL746-750/C797S, form open): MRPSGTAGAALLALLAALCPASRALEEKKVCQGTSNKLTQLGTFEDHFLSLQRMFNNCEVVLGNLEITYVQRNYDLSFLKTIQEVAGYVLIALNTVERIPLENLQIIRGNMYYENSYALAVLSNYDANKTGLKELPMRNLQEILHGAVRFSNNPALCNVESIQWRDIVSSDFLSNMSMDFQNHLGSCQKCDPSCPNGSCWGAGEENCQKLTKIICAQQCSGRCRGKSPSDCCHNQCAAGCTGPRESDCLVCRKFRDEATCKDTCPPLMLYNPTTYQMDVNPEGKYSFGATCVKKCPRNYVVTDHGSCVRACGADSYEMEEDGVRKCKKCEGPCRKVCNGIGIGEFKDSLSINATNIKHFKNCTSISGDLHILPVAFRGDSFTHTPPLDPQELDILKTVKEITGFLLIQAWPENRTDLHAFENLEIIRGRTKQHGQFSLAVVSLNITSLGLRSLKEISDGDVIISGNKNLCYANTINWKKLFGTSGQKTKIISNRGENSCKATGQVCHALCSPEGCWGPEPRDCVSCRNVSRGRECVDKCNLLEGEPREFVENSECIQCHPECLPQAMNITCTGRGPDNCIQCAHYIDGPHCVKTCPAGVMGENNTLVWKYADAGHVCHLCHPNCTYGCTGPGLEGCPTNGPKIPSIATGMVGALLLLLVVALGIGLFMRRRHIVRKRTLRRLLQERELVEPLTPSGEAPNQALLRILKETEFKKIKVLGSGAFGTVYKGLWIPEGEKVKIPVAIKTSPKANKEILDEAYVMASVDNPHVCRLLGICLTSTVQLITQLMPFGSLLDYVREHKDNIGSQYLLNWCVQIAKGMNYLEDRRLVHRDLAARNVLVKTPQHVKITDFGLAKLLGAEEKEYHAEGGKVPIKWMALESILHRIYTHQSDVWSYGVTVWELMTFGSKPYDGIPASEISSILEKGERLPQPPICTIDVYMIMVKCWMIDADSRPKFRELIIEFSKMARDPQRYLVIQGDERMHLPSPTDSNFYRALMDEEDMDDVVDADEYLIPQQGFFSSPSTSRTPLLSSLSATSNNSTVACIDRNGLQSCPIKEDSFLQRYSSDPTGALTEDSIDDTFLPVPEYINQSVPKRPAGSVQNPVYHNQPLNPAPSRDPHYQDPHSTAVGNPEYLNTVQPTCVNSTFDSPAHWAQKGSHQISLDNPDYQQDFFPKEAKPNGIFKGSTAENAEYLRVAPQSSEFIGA
Note to self: class labels come from recorded IC50, ranges listed here: c1 = under 0.004 µM, c2 = from 0.004 µM up to 0.02 µM, c3 = 0.02 µM and over

Example cases with answers are listed next.
>>> answerlabel("CCc1cc(Nc2ncc(Cl)c(Nc3ccccc3P(C)(C)=O)n2)cc(C(N)=O)c1N1CCC(N2CCN(CCCCOc3cccc4c3CN(C3CCC(=O)NC3=O)C4=O)CC2)CC1 (stereo not drawn)")
"c3"
>>> answerlabel("CCc1cc(Nc2ncc(Cl)c(Nc3ccc(C)c(C)c3P(C)(C)=O)n2)c(OC)cc1N1CCC(N2CCN(CCCCOc3cccc4c3CN(C3CCC(=O)NC3=O)C4=O)CC2)CC1 (stereo not drawn)")
"c1"

Request: Which of the defined bands does the recorded IC50 of COc1cc(N2CCC(N3CCN(CCC#Cc4cccc5c4CN(C4CCC(=O)NC4=O)C5=O)CC3)CC2)c(C)cc1Nc1ncc(Br)c(Nc2ccccc2P(C)(C)=O)n1 (stereo not drawn) sit within?
Result: c2

Request: Then what about the compound COc1cc(N2CCC(N3CCN(CCCCOc4cccc5c4CN(C4CCC(=O)NC4=O)C5=O)CC3)CC2)c(C#N)cc1Nc1ncc(Cl)c(Nc2ccccc2P(C)(C)=O)n1 (stereo not drawn) ?
Result: c2

Request: Then what about the compound CCc1cc(Nc2ncc(Cl)c(Nc3ccccc3P(C)(C)=O)n2)c(OC)cc1N1CCC(N2CCN([C@H]3C[C@@H](Oc4cc5c(cc4F)C(=O)N(C4CCC(=O)NC4=O)C5)C3)CC2)CC1 (stereo partly drawn) ?
Result: c2

Request: Then what about the compound CCc1cc(Nc2ncc(Cl)c(Nc3ccccc3P(C)(C)=O)n2)c(OC)cc1N1CCC2(CCN(C(=O)CCCOc3cccc4c3CN(C3CCC(=O)NC3=O)C4=O)CC2)CC1 (stereo not drawn) ?
Result: c2

Request: Then what about the compound CCc1cc(Nc2ncc(Cl)c(Nc3ccccc3P(C)(C)=O)n2)c(OC)cc1N1CCC(N2CCN(CCCCCc3ccc4c(c3)CN(C3CCC(=O)NC3=O)C4=O)CC2)CC1 (stereo not drawn) ?
Result: c1

Request: Then what about the compound CCc1cc(Nc2ncc(-c3ccnn3C)c(Nc3ccccc3P(C)(C)=O)n2)c(OC)cc1N1CCC(N2CCN(CCOc3cccc4c3CN(C3CCC(=O)NC3=O)C4=O)CC2)CC1 (stereo not drawn) ?
Result: c1

Request: Then what about the compound CCc1cc(Nc2ncc(Cl)c(Nc3ccccc3P(C)(C)=O)n2)c(OC)cc1N1CCC(N2CCN(CCN(C)c3ccc4c(c3)CN(C3CCC(=O)NC3=O)C4=O)CC2)CC1 (stereo not drawn) ?
Result: c2

Request: Then what about the compound CCc1cc(Nc2ncc(Cl)c(Nc3ccccc3P(C)(C)=O)n2)c(OC)cc1N1CCC(N2CCc3ccc(Oc4cccc5c4CN(C4CCC(=O)NC4=O)C5=O)cc3C2)CC1 (stereo not drawn) ?
Result: c3

Request: Then what about the compound CCc1cc(Nc2ncc(Cl)c(Nc3ccccc3P(C)(C)=O)n2)c(OC)cc1N1CCC(N2CCN(C(=O)CCC#Cc3cccc4c3CN(C3CCC(=O)NC3=O)C4=O)CC2)CC1 (stereo not drawn) ?
Result: c2

----------
system: A431; assay: Cell proliferation IC50 assay (Cell Titer GLO), A431 cells; assay type: cell-based; details: Homo sapiens, A-431; Table 5; A431, 72 h; read-out: A431 IC50
For each entry below, report its IC50 value.
Give bare numbers, in µM.

Check out these entries, answers already filled in.
>>> observed("CCc1cc(Nc2ncc(Cl)c(Nc3ccccc3P(C)(C)=O)n2)c(OC)cc1N1CCC(N2CCC3(CCC(Oc4cccc5c4CN(C4CCC(=O)NC4=O)C5=O)CC3)C2)CC1 (centres unmarked) [Example E21]")
1.01
>>> observed("COc1cc(N2CCC(N3CCN(CCC#Cc4cccc5c4CN(C4CCC(=O)NC4=O)C5=O)CC3)CC2)c(Cl)cc1Nc1ncc(Cl)c(Nc2ccccc2P(C)(C)=O)n1 (centres unmarked) [Example E10]")
1.21
>>> observed("CCc1cc(Nc2ncc(Cl)c(Nc3ccccc3P(C)(C)=O)n2)c(OC)cc1N1CCC(N2CC3(CCC(Oc4cccc5c4CN(C4CCC(=O)NC4=O)C5=O)CC3)C2)CC1 (centres unmarked) [Example E29]")
1.02

I'm hoping you can list IC50 for every compound here, please.
1. CCc1cc(Nc2ncc(Cl)c(Nc3ccccc3P(C)(C)=O)n2)c(OC)cc1N1CCC(N2CCN(CCC#Cc3ccc4c(c3)CN(C3CCC(=O)NC3=O)C4=O)CC2)CC1 (centres unmarked) [Example E24]
2. CCc1cc(Nc2ncc(Cl)c(Nc3ccccc3P(C)(C)=O)n2)c(OC)cc1N1CCC(N2CCN(CCCCCc3cc4c(cc3F)C(=O)N(C3CCC(=O)NC3=O)C4)CC2)CC1 (centres unmarked) [Example E19]
3. CCc1cc(Nc2ncc(Cl)c(Nc3ccccc3P(C)(C)=O)n2)c(OC)cc1N1CCC(N2CCN(CCCc3cccc4c3CN(C3CCC(=O)NC3=O)C4=O)CC2)CC1 (centres unmarked) [Example E26]
4. CN(CCCC#Cc1cccc2c1CN(C1CCC(=O)NC1=O)C2=O)C1CC2(CCN(c3ccc(Nc4ncc(Cl)c(Nc5ccccc5P(C)(C)=O)n4)cc3Cl)CC2)C1 (centres unmarked) [Example E14]

Result:
1.46
1.07
1.09
0.377

I'm hoping you can list IC50 for every compound here, please.
1. CP(C)(=O)c1ccccc1Nc1nc(Nc2ccc(N3CCC(N4CCN(CCC#Cc5cccc6c5CN(C5CCC(=O)NC5=O)C6=O)CC4)CC3)c(Cl)c2)ncc1Cl (centres unmarked) [Example E17]
2. CCc1cc(Nc2ncc(Cl)c(Nc3ccccc3P(C)(C)=O)n2)c(OC)cc1N1CCC(N2CCN(CCCCOc3cccc4c3CN(C3CCC(=O)NC3=O)C4=O)CC2)CC1 (centres unmarked) [Example E30]
3. COc1cc(N2CCC(N3CCC4(CCC(Oc5cccc6c5CN(C5CCC(=O)NC5=O)C6=O)CC4)C3)CC2)c(C2CC2)cc1Nc1ncc(Cl)c(Nc2ccccc2P(C)(C)=O)n1 (centres unmarked) [Example E27]
4. CCc1cc(Nc2ncc(Br)c(Nc3ccc4c(c3P(C)(C)=O)OCCO4)n2)c(OC)cc1N1CCC2(CCN(CCCC#Cc3cccc4c3CN(C3CCC(=O)NC3=O)C4=O)CC2)CC1 (centres unmarked) [Example E28]
5. CCc1cc(Nc2ncc(Cl)c(Nc3ccccc3P(C)(C)=O)n2)c(OC)cc1N1CCC(N2CCN(CCC#Cc3cccc4c3CN(C3CCC(=O)NC3=O)C4=O)CC2)CC1 (single isomer, unassigned) [Example E4]
6. COc1cc(N2CCC(N3CCC4(CCC(Oc5cccc6c5CN(C5CCC(=O)NC5=O)C6=O)CC4)C3)CC2)ccc1Nc1ncc(Cl)c(Nc2ccccc2P(C)(C)=O)n1 (centres unmarked) [Example C-6, reference compound]
7. COc1cc(N2CCC(N3CCN(CCCCCc4ccc5c(c4)CN(C4CCC(=O)NC4=O)C5=O)CC3)CC2)ccc1Nc1ncc(Cl)c(Nc2ccccc2P(C)(C)=O)n1 (centres unmarked) [Example C-5, reference compound]

Result:
1: 0.283; 2: 1.02; 3: 1.19; 4: 1.39; 5: 2.06; 6: 0.342; 7: 1.23

----------
target: BaF3 (EGFR Del19/C797S) (Homo sapiens, UniProt P00533, C797S, cells depend on it, form not given); construct: BaF3 (EGFR Del19/C797S)|DC|RPMI1640 + 10% FBS; assay: Cell proliferation IC50 assay (Cell Titer GLO), BaF3 DC cells; assay type: cell-based, mouse; conditions: Table 6, 72 h
assayReadout: pIC50
Give bare numbers, as −log10 of the molar value.

Check out these entries, answers already filled in.
>>> observed("CCc1cc(Nc2ncc(-c3cnn(C)c3)c(Nc3ccccc3P(C)(C)=O)n2)c(OC)cc1N1CCC(N2CCN(CCOc3cc4c(cc3F)C(=O)N(C3CCC(=O)NC3=O)C4)CC2)CC1 (stereo not shown) [Example E189]")
9.10
>>> observed("CCc1cc(Nc2ncc(Cl)c(Nc3ccccc3P(C)(C)=O)n2)c(OC)cc1N1CCC(N2CCN([C@H]3C[C@H](Oc4cccc5c4CN(C4CCC(=O)NC4=O)C5=O)C3)CC2)CC1 (stereo partly shown) [Example E160]")
9.10
>>> observed("CCc1cc(Nc2nc(Nc3ccccc3P(C)(C)=O)c3cn[nH]c3n2)c(OC)cc1N1CCC(N2CCN(CCOc3cc4c(cc3F)C(=O)N(C3CCC(=O)NC3=O)C4)CC2)CC1 (stereo not shown) [Example E208]")
7.79
>>> observed("COc1cc(N2CCC(N3CCN(CCC#Cc4cccc5c4CN(C4CCC(=O)NC4=O)C5=O)CC3)CC2)c(CO)cc1Nc1ncc(Cl)c(Nc2ccccc2P(C)(C)=O)n1 (stereo not shown) [Example E91]")
8.28
>>> observed("CCc1cc(Nc2ncc(-c3cnn(C)c3)c(Nc3ccccc3P(C)(C)=O)n2)c(OC)cc1N1CCC(N2CCN(CCN(C)c3ccc4c(c3)CN(C3CCC(=O)NC3=O)C4=O)CC2)CC1 (stereo not shown) [Example E224]")
9.05
>>> observed("CCc1cc(Nc2ncc(Cl)c(Nc3ccccc3P(C)(C)=O)n2)cc(Cl)c1N1CCC(N2CCN(CCC#Cc3cccc4c3CN(C3CCC(=O)NC3=O)C4=O)CC2)CC1 (stereo not shown) [Example E77]")
7.87
>>> observed("CCc1cc(Nc2ncc(Cl)c(Nc3ccccc3P(C)(C)=O)n2)c(OC)cc1N1CCC(N2CCN(CC(C)(C)Oc3cccc4c3CN(C3CCC(=O)NC3=O)C4=O)CC2)CC1 (stereo not shown) [Example E157]")
7.47
>>> observed("CCc1cc(Nc2ncc(-c3nnc(C)o3)c(Nc3ccccc3P(C)(C)=O)n2)c(OC)cc1N1CCC(N2CCN(CCOc3cccc4c3CN(C3CCC(=O)NC3=O)C4=O)CC2)CC1 (stereo not shown) [Example E177]")
7.80
>>> observed("CCc1cc(Nc2ncc(Cl)c(Nc3ccccc3P(C)(C)=O)n2)c(OC)cc1N1CCC(N2CCN(C3(C#Cc4cccc5c4CN(C4CCC(=O)NC4=O)C5=O)CC3)CC2)CC1 (stereo not shown) [Example E84]")
7.60

Request: pIC50 for CCc1cc(Nc2ncc(Cl)c(Nc3ccccc3P(C)(C)=O)n2)c(OC)cc1N1CCC(N2C[C@@H]3C[C@H]2CN3CCOc2cccc3c2CN(C2CCC(=O)NC2=O)C3=O)CC1 (stereo partly shown) [Example E137] ?
Result: 8.18
